Where do these numbers come from? They come from patent US20060069132A1.

tested on: giant foxtail; test: Test B pre-/postemergence herbicide test; type: in vivo, Setaria faberi; conditions: postemergence, 125 g ai/ha; visual rating, scale 0 (no effect) to 100 (complete control)
experimental.readout: Foxtail, Giant plant response rating
Simply state the number, no unit and no words.

Log: giant foxtail, molecule CCN(CC)C(=O)c1cccc(NC(=O)c2cc(C(C)(C)C)nn2CC)n1 , Foxtail, Giant plant response rating = 30

Log: giant foxtail, molecule CCNC(=O)c1cc(C)nc(NC(=O)c2cc(C(C)(C)C)nn2CC)c1 , Foxtail, Giant plant response rating = 10

Log: giant foxtail, molecule C#CCNC(=O)c1cccc(NC(=O)c2sc(C(C)(C)C)nc2CC)n1 , Foxtail, Giant plant response rating = 0

====

tested on: large crabgrass; test: Test A pre-/postemergence herbicide test; assay type: in vivo, Digitaria sanguinalis; details: Postemergence, 2000 g ai/ha; 0 to 100 scale, 0 no effect, 100 complete control
Give Plant response rating, Crabgrass, Large for every item shown.

Item: CCn1nc(C(C)(C)C)cc1C(=O)Nc1cccc(C(=O)N2CC=CC2)c1 | Plant response rating, Crabgrass, Large: 25

Item: CCn1nc(C(C)(C)C)cc1C(=O)Nc1nc(OC)cc(SCF)n1 | Plant response rating, Crabgrass, Large: 5

Item: CC(=NO)c1cccc(NC(=O)c2cc(C(C)(C)C)nn2C)c1 | Plant response rating, Crabgrass, Large: 80

Item: CCNC(=O)c1cc(C)nc(NC(=O)c2cc(C(C)(C)C)nn2CC)c1 | Plant response rating, Crabgrass, Large: 75

Item: Cc1nc(C(C)(C)C)sc1C(=O)Nc1cccc(C(=O)NCCF)c1 | Plant response rating, Crabgrass, Large: 25

Item: CCn1nc(C(C)(C)C)cc1C(=O)Nc1cccc(C#N)c1 | Plant response rating, Crabgrass, Large: 30

Item: CCn1nc(C(C)(C)C)cc1C(=O)Nc1ccnc(C(=O)NCCF)c1 | Plant response rating, Crabgrass, Large: 20

Item: CCn1nc(C(C)(C)C)cc1C(=O)Nc1cccc(C(=O)NOC)c1 | Plant response rating, Crabgrass, Large: 20

Item: CCN(CC)C(=O)c1cccc(NC(=O)c2cc(C(C)(C)C)nn2CC)n1 | Plant response rating, Crabgrass, Large: 85

====

system: morningglory; experiment: Test B pre-/postemergence herbicide test; assay type: in vivo, Ipomoea coccinea; conditions: 125 g ai/ha; 0 = no effect, 100 = complete control; preemergence
experimental.readout: Morningglory plant response rating (0 to 100 scale)
Simply state the number, no unit and no words.

Item: CCn1nc(C(C)(C)C)cc1C(=O)Nc1nc(OC)cc(SCF)n1 | Morningglory plant response rating (0 to 100 scale): 0

Item: CCn1nc(C(C)(C)C)cc1C(=O)Nc1cc(C(N)=O)ccc1F | Morningglory plant response rating (0 to 100 scale): 0

Item: CCn1nc(C(C)(C)C)cc1C(=O)Nc1cc(C(=O)N2CCOCC2)ccc1F | Morningglory plant response rating (0 to 100 scale): 0

Item: COC(=O)c1cccc(NC(=O)c2cc(C(C)(C)C)nn2C)n1 | Morningglory plant response rating (0 to 100 scale): 0

Item: CCn1nc(C(C)(C)C)cc1C(=O)Nc1cccc(OC(C)C)c1 | Morningglory plant response rating (0 to 100 scale): 0

Item: C=CCNC(=O)c1cccc(NC(=O)c2sc(C(C)(C)C)nc2C)c1 | Morningglory plant response rating (0 to 100 scale): 0

====

Give Pigweed plant response rating for every item shown.
tested on: pigweed; assay: Test B pre-/postemergence herbicide test; type: in vivo, Amaranthus retroflexus; conditions: postemergence, 125 g ai/ha; visual rating, scale 0 (no effect) to 100 (complete control)
Simply state the number, no unit and no words.

Item: CCOC(=O)c1cccc(NC(=O)c2cc(C(C)(C)C)nn2CCF)c1 | Pigweed plant response rating: 70

Item: C=CCN(C)C(=O)c1cccc(NC(=O)c2cc(C(C)(C)C)nn2CC)n1 | Pigweed plant response rating: 60

Item: CCn1nc(C(C)(C)C)cc1C(=O)Nc1cccc(C(=O)OC)c1C | Pigweed plant response rating: 0

Item: Cc1nc(C(C)(C)C)sc1C(=O)Nc1cccc(C(=O)NCCF)c1 | Pigweed plant response rating: 10

Item: CCN(C)C(=O)c1cccc(NC(=O)c2sc(C(C)(C)C)nc2C)c1 | Pigweed plant response rating: 20

Item: CCNC(=O)c1ccc(F)c(NC(=O)c2c(F)c(C(C)(C)C)nn2CC)c1 | Pigweed plant response rating: 60

Item: C=CCOC(=O)c1cccc(NC(=O)c2cc(C(C)(C)C)nn2CC)c1 | Pigweed plant response rating: 100

Item: CC(=NO)c1cccc(NC(=O)c2cc(C(C)(C)C)nn2C)c1 | Pigweed plant response rating: 80

Item: CCn1nc(C(C)(C)C)cc1C(=O)Nc1cccc(C(=O)OC)c1 | Pigweed plant response rating: 50

Item: COc1ccc(C(C)=NO)cc1NC(=O)c1cc(C(C)(C)C)nn1C | Pigweed plant response rating: 10

Item: CCn1nc(C(C)(C)C)cc1C(=O)Nc1cccc(C(=O)N2CC=CC2)c1 | Pigweed plant response rating: 60

Item: CCc1nn(C(C)(C)C)cc1C(=O)Nc1ccc(F)c(C(=O)N(C)C)c1 | Pigweed plant response rating: 20

Item: CCCn1nc(C(C)(C)C)cc1C(=O)Nc1cccc(C(=O)NCC)c1 | Pigweed plant response rating: 70

Item: CC(=O)c1cc(NC(=O)c2cc(C(C)(C)C)nn2C)ccc1F | Pigweed plant response rating: 0

Item: CCn1nc(C(C)(C)C)cc1C(=O)Nc1ccnc(C(=O)NCCF)c1 | Pigweed plant response rating: 60

Item: CCn1nc(C(C)(C)C)cc1C(=O)Nc1cccc(OC(F)(F)F)c1 | Pigweed plant response rating: 100

Item: C=CCOC(=O)c1cccc(NC(=O)c2cc(C(C)(C)C)nn2CC)c1C | Pigweed plant response rating: 10

Item: CCc1nn(C(C)(C)C)cc1C(=O)Nc1cc(C(=O)NC)ccc1F | Pigweed plant response rating: 20

Item: CCn1nc(C(C)(C)C)cc1C(=O)Nc1nc(C(=O)OC)ccc1OC | Pigweed plant response rating: 0

Item: CCNC(=O)c1cc(C)cc(NC(=O)c2cc(C(C)(C)C)nn2CC)n1 | Pigweed plant response rating: 70

Item: CCn1nc(C(C)(C)C)cc1C(=O)Nc1cc(C(=O)N2CCCC2)ccc1F | Pigweed plant response rating: 60

Item: CCn1nc(C(C)(C)C)cc1C(=O)Nc1cccc2c1CNC2=O | Pigweed plant response rating: 0

====

Give Plant response rating (0 to 100 scale), Foxtail, Giant for every item shown.
tested on: giant foxtail; assay: Test B pre-/postemergence herbicide test; type: in vivo, Setaria faberi; settings: 125 g ai/ha; 0 is no effect, 100 is complete control; preemergence
Simply state the number, no unit and no words.

Item: CCc1nn(C(C)(C)C)nc1C(=O)Nc1cccc(C(=O)N2CCCCC2)c1 [Compound 416] | Plant response rating (0 to 100 scale), Foxtail, Giant: 70

Item: CCOc1ccc(F)c(NC(=O)c2cc(C(C)(C)C)nn2CC)c1 [Compound 348] | Plant response rating (0 to 100 scale), Foxtail, Giant: 0

Item: CCC1=NN(C(C)(C)C)CC1C(=O)Nc1cc(C(=O)N(C)CC)ccc1F (racemic) [Compound 342] | Plant response rating (0 to 100 scale), Foxtail, Giant: 40

Item: CCc1nn(C(C)C)nc1C(=O)Nc1cccc(C(=O)N2CC=CC2)c1 [Compound 359] | Plant response rating (0 to 100 scale), Foxtail, Giant: 60

Item: COC(=O)c1ccc(F)c(NC(=O)c2nn(C(C)C)nc2C)c1 [Compound 398] | Plant response rating (0 to 100 scale), Foxtail, Giant: 0

Item: CCN(CC)C(=O)c1cccc(NC(=O)c2nn(C(C)(C)C)nc2C)c1 [Compound 418] | Plant response rating (0 to 100 scale), Foxtail, Giant: 80

====

System: lambsquarters
Test: Test B pre-/postemergence herbicide test
Type: in vivo, Chenopodium album
Settings: postemergence, 125 g ai/ha; visual rating, scale 0 (no effect) to 100 (complete control)
Protocol: […] At the same time, plants selected from these crop and weed species and also blackgrass (Alopecurus myosuroides Huds.), wheat (Triticum aestivum L.) and wild oat (Avena fatua L.) were treated with postemergence applications of test chemicals formulated in the same manner. […] Treated plants and controls were maintained in a greenhouse for 13 to 15 days, after which time all species were compared to controls and visually evaluated. […]
So basically: Lambsquarters plant response rating at 60 or higher? That is Satisfied. Lower than 60? That is Not satisfied.

// query Hello, I need to know if C=CCN(C)C(=O)c1ccnc(NC(=O)c2cc(C(C)(C)C)nn2CC)c1 [Compound 159] has measured Lambsquarters plant response rating not below 60. Thanks!
// result Satisfied

// query Hello, I need to know if CCn1nc(C(C)(C)C)cc1C(=O)Nc1nc(OC)cc(SCF)n1 [Compound 167] has measured Lambsquarters plant response rating not below 60. Thanks!
// result Not satisfied

// query Hello, I need to know if CCn1nc(C(C)(C)C)cc1C(=O)Nc1cc(C#N)ccc1F [Compound 140] has measured Lambsquarters plant response rating not below 60. Thanks!
// result Not satisfied

// query Hello, I need to know if CC(=NO)c1cccc(NC(=O)c2cc(C(C)(C)C)nn2C)c1 [Compound 102] has measured Lambsquarters plant response rating not below 60. Thanks!
// result Not satisfied

// query Hello, I need to know if C#CCOC(=O)c1cccc(NC(=O)c2cc(C(C)(C)C)nn2CC)c1 [Compound 84] has measured Lambsquarters plant response rating not below 60. Thanks!
// result Not satisfied

// query Hello, I need to know if CCn1nc(C(C)(C)C)cc1C(=O)Nc1cccc(C(=O)N2CC=CC2)c1 [Compound 286] has measured Lambsquarters plant response rating not below 60. Thanks!
// result Not satisfied

// query Hello, I need to know if CCc1cn(C(C)(C)C)nc1C(=O)Nc1cc(C(=O)N(C)C)ccn1 [Compound 232] has measured Lambsquarters plant response rating not below 60. Thanks!
// result Not satisfied

// query Hello, I need to know if CCn1nc(C(C)(C)C)cc1C(=O)Nc1cccc(C(C)=NO)c1 [Compound 108] has measured Lambsquarters plant response rating not below 60. Thanks!
// result Satisfied

// query Hello, I need to know if CCn1nc(C(C)(C)C)cc1C(=O)Nc1cccc(C(=O)N(C)CC#N)n1 [Compound 158] has measured Lambsquarters plant response rating not below 60. Thanks!
// result Satisfied

// query Hello, I need to know if CCn1nc(C(C)(C)C)cc1C(=O)Nc1cccc(C(=O)NC2CC2)n1 [Compound 146] has measured Lambsquarters plant response rating not below 60. Thanks!
// result Satisfied

// query Hello, I need to know if CCn1nc(C(C)(C)C)cc1C(=O)Nc1cc(C(=O)N2CCCC2)ccc1F [Compound 242] has measured Lambsquarters plant response rating not below 60. Thanks!
// result Satisfied

// query Hello, I need to know if CCNC(=O)c1ccc(F)c(NC(=O)c2c(F)c(C(C)(C)C)nn2CC)c1 [Compound 275] has measured Lambsquarters plant response rating not below 60. Thanks!
// result Not satisfied
